Attribute: Kd
Target: T1, human angiopoietin-2 (human, UniProt O15123 19-496, limits assumed)
T1 construct: Bought recombinant protein with a His tag (detected by anti-HIS-tag antibody); also called human Ang-2; hAng-2
T1 sequence (looked up): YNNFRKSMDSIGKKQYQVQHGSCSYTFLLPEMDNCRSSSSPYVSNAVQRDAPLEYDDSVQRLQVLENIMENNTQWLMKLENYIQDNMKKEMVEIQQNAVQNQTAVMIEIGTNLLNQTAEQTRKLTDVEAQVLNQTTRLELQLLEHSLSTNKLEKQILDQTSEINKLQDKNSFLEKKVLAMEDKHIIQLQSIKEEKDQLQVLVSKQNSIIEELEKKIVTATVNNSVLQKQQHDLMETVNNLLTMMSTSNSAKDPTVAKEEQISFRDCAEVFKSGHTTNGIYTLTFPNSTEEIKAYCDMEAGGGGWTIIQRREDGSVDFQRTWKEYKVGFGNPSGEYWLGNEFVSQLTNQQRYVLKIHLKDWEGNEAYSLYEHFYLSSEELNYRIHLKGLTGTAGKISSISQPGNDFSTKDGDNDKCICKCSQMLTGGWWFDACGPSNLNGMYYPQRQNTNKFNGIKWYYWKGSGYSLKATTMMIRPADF
Assay: SPR Biacore T200; biotinylated mutein captured, hAng-2 analyte, 1:1 model, 25 C
Procedure: In the SPR affinity assay, biotinylated muteins and negative control were captured on a sensor chip CAP using the Biotin CAPture Kit (GE Healthcare): Sensor Chip CAP is pre-immobilized with an ssDNA oligo. […] Applying a flow rate of 30 μL/min, a multi cycle kinetics approach was used with a sample contact time of 180 s and a dissociation time of 4600 s. […] Data were evaluated with Biacore T200 Evaluation software (V 1.0). […]
Assay readout: Kd

[[record]]
binder = "hNGAL lipocalin mutein SEQ ID NO: 11 (designed binder, Mutein of mature hNGAL; Biotinylated with NHS-PEG4-Biotin for the SPR assay) QDSTSDLIPAPPLSKVPLQQNFQDNQFHGKWYVVGQAGNYILREDKDPVKMWATIYELKEDKSYDVTEVSFGPKKCNYRIWTFVPGSQPGEFTLGGIKSLPGGTSTLVRVVSTNYNQHAMVFFKHVLQNREFFEITLYGRTKELTSELKENFIRFSKSLGLPENHIVFPVPIDQCIDGSAWSHPQFEK"
observed_measurement = "0.21 nM"

[[record]]
binder = "hNGAL lipocalin mutein SEQ ID NO: 8 (designed binder, Mutein of mature hNGAL; Biotinylated with NHS-PEG4-Biotin for the SPR assay) QDSTSDLIPAPPLSKVPLQQNFQDNQFHGKWYVVGQAGNYILREDKDPGKMWATIYELKEDKSYDVTEVSFGAKKCNYRIWTFVPGSQPGEFTLGGIKSDPGGTSTLVRVVSTNYNQHAMVFFKHVLQNREFFEITLYGRTKELTSELKENFIRFSKSLGLPENHIVFPVPIDQCIDGSAWSHPQFEK"
observed_measurement = "0.37 nM"

[[record]]
binder = "hNGAL lipocalin mutein SEQ ID NO: 9 (designed binder, Mutein of mature hNGAL; Biotinylated with NHS-PEG4-Biotin for the SPR assay) QDSTSDLIPAPPLSKVPLQQNFQDNQFHGKWYVVGHAGNYILREDKDPGKMWATIYELKEDKSYDVTEVSFGPKKCNYRIWTFVPGSQPGEFTLGGIKSPPGGTSTLVRVVSTNYNQHAMVFFKHVLQNREFFEITLYGRTKELTSELKENFIRFSKSLGLPENHIVFPVPIDQCIDGSAWSHPQFEK"
observed_measurement = "0.29 nM"

[[record]]
binder = "hNGAL lipocalin mutein SEQ ID NO: 7 (designed binder, Mutein of mature hNGAL; Biotinylated with NHS-PEG4-Biotin for the SPR assay) QDSTSDLIPAPPLSKVPLQQNFQDNQFHGKWYVVGHAGNYILREDKDPEKMWATIYELKEDKSYDVTEVSFGPKKCNYRIWTFVPGSQPGEFTLGGIKSPPGDTSTLVRVVSTNYNQHAMVFFKHVLQNREFFEITLYGRTKELTSELKENFIRFSKSLGLPENHIVFPVPIDQCIDGSAWSHPQFEK"
observed_measurement = "1.43 nM"

